Give measured TGI for each item. Keep answers brief.
# System: MDA-MB-231 breast
# method.description: NCI tumour cell line growth inhibition, 48 h

Look over these answered cases.
| compound | observation.type | result |
| --- | --- | --- |
| CCCCCCCCCCCCCCCCOCC(Cl)CP(=O)(O)OP(=O)(O)OCC1OC(n2cnc3c(N)ncnc32)C(O)C1O (stereo not given) | TGI | > 100 µM |
| NCCCNc1nc2ccccc2c2c(=O)c3cccc(F)c3sc12 | TGI | 2.75 µM |
| CC(C#N)NCc1ccc(C(C)NC(C)C#N)cc1 (stereo not given) | TGI | > 100 µM |
| COc1cccc(-c2nc(-c3cnccn3)n(C3OC(CO)C(O)C3O)n2)c1 (stereo not given) | TGI | > 100 µM |

Could you now consider this next compound?
Challenge: TGI for O=C(/C=C/c1c(-c2ccccc2)[nH]c2ccccc12)S(=O)(=O)c1ccccc1 ?
Response given: > 100 µM

* * *

# Tested on: UACC-257 melanoma
# method.description: NCI tumour cell line growth inhibition, 48 h
Give measured TGI for each item. Keep answers brief.

| molecule | TGI |
| --- | --- |
| CCOC(=O)[C@]12C3C=CC(C3)C1C(=O)C1OC12 (stereo partly drawn) | > 100 µM |
| CCCCCCCCCCCCCCCCOCC(Cl)CP(=O)(O)OP(=O)(O)OCC1OC(n2cnc3c(N)ncnc32)C(O)C1O (stereo not drawn) | > 100 µM |
| CN(C)CCNC(=O)c1cccc2nc3c(ccc4ccccc43)nc12 | 3.4 µM |
| CS(=O)(=O)OCOS(C)(=O)=O | > 100 µM |
| CC(C)(C)c1ccc2c(c1)OP1(Oc3cccc4cccnc34)(O2)Oc2ccc(C(C)(C)C)cc2O1 | > 30.4 µM |

Can you give me TGI for all of these, one by one?
1. Nc1cnc(Nc2cccc3ccccc23)o1
2. CC[C@@]1(O)C(=O)OCc2c1cc1n(c2=O)Cc2c-1nc1ccccc1c2/C=N/NC(=O)C[N+](C)(C)C
3. COc1ccc(/C=C/C(=O)c2c(O)c(C)c(O)c3c2OC2=CC(O)=C(C(C)=O)C(=O)[C@]23C)cc1

Response given:
1: > 10 µM; 2: > 100 µM; 3: 10 µM

* * *

Give measured TGI for each item. Keep answers brief.
# System: RPMI-8226 leukemia
# method.description: NCI tumour cell line growth inhibition, 48 h
Numbers only, in µM.

Look over these answered cases.
| molecule | TGI / µM |
| --- | --- |
| CN(C)CCCNc1nc2ccccc2c2c(=O)c3cc(F)ccc3sc12 | 5.37 |
| CCCCc1ccc(NS(=O)(=O)c2cc3c4c(c2)CCN4C(=O)CC3)cc1 | 57 |
| CCc1cccc(C(C)CC)c1NC(=O)CC1C(=O)Nc2ccccc2S1(=O)=O (stereo not given) | 43.3 |
| CCOC(=O)c1c(NNc2ccccc2)nc2ccccc2c1-c1ccccc1 | 47.3 |
| O=C(c1ccc(Oc2ccccc2)cc1Cl)c1c[nH]c2ncnc(N[C@@H]3CC[C@@H](CO)OC3)c12 | 9.53 |

Can you give me TGI for all of these, one by one?
1. COc1cc(C=C2c3ccccc3C(=O)c3ccccc32)ccc1OCCCCOc1cc2c(cc1OC)C(=O)N1CCCC1C=N2 (stereo not given)
2. O=C1C(=O)/C(=C/c2ccccc2)CCCCCC/C1=C/c1ccccc1
3. COc1cc(Nc2ncc3c(C)nc(-c4cccc(C(F)(F)F)c4)n3n2)cc(OC)c1OC

Response given:
[0.354, 5.96, 19.7]

* * *

# Test system: MDA-MB-435
# method.description: NCI tumour cell line growth inhibition, 48 h
observation.type: TGI

| molecule | system | TGI |
| --- | --- | --- |
| O=C(CCCBr)Nc1ccccc1C#C/C=C\C#Cc1ccccc1C(F)(F)F | MDA-MB-435 | 32.6 µM |
| CCOC(=O)c1csc(NC(=O)CN2CCN(c3ccccc3)CC2)n1 | MDA-MB-435 | > 100 µM |
| O=C1c2ccc3c4ccc5c6c(ccc(c7ccc(c2c37)C(=O)N1CCN1CCCCC1)c64)C(=O)N(CCN1CCCCC1)C5=O | MDA-MB-435 | > 100 µM |

Can you give me TGI for all of these, one by one?
1. CCOc1ccccc1/C=C(/C#N)C(N)=O
2. NC(C/C=C/P(=O)(O)O)C(=O)O (configuration not stated)
3. CNc1ccccc1S(=O)(=O)c1ccccc1[N+](=O)[O-]

Response given:
41.9 µM
> 100 µM
> 100 µM

Challenge: TGI for NCCCNc1nc2ccccc2c2c(=O)c3cccc(F)c3sc12 ?
Response given: 3.39 µM

* * *

# Tested on: T-47D breast
# method.description: NCI tumour cell line growth inhibition, 48 h
observation.type: TGI

Look over these answered cases.
| compound | system | TGI |
| --- | --- | --- |
| O=C1C(Cl)=C(Cl)C(Cl)(Cl)C(Cl)C1(Cl)Cl (stereo unspecified) | T-47D breast | 75.9 µM |
| CCOC(=O)c1cc(C(=O)c2cc(OC)cc(OC)c2)n2nc(C)ccc12 | T-47D breast | > 100 µM |
| O=C1C(=O)/C(=C/c2ccccc2)CCCCCC/C1=C/c1ccccc1 | T-47D breast | > 100 µM |
| CC1=C(C)C(=O)C(C2=C(C3=CC(=O)C(C)=C(C)C3=O)C(=O)C(C)=C(C)C2=O)=CC1=O | T-47D breast | 7.32 µM |
| NC(=O)C1CCCNC1 (stereo unspecified) | T-47D breast | > 100 µM |

Challenge: TGI for O=C(CCCBr)Nc1ccccc1C#C/C=C\C#Cc1ccccc1C(F)(F)F ?
Response given: > 50 µM

* * *

Give measured TGI for each item. Keep answers brief.
# Test system: DMS 114 small cell lung
# method.description: NCI tumour cell line growth inhibition, 48 h
Answers are plain numbers, in µM.

| compound | TGI / µM |
| --- | --- |
| CCc1cccc(C(C)CC)c1NC(=O)CC1C(=O)Nc2ccccc2S1(=O)=O (stereo not drawn) | 39.2 |
| COc1ccccc1N=NC(C(=O)c1ccccc1)C(=O)c1ccccc1 | 40.5 |
| N#CNC1=NC(Cc2ccccc2)C(=O)N1CCc1c[nH]c2ccccc12 (stereo not drawn) | 91.9 |
| CC(=O)Nc1cccc2[nH]c3ccccc3c(=O)c12 | 79.6 |

Can you give me TGI for all of these, one by one?
1. CC[C@H]1CC(=O)c2c(cc3c(c2O)C(=O)c2ccccc2C3=O)[C@@]1(C#N)C(=O)OC(C)(C)C
2. CCOC(=O)c1c(NNc2ccccc2)nc2ccccc2c1-c1ccccc1

Response given:
[7.97, 32.9]

* * *

# System: HOP-92 NSCLC
# method.description: NCI tumour cell line growth inhibition, 48 h
observation.type: log10(TGI) (log10 of the value in µM)
Heads up: the numbers are on a log10 scale; they represent TGI in µM.

Look over these answered cases.
| compound | observation.type | numeric.readout |
| --- | --- | --- |
| CCCCc1ccc(NS(=O)(=O)c2cc3c4c(c2)CCN4C(=O)CC3)cc1 | log10(TGI) | 1.56 |
| Cn1c([N+](=O)[O-])cnc1/C=C1\Oc2ccc(Br)cc2C1=O | log10(TGI) | 0.41 |
| COc1cc2c(cc1OCCCCCN1C(=O)c3cccc4cccc(c34)C1=O)N=C[C@@H]1CCCN1C2=O | log10(TGI) | -0.13 |
| Nc1nc(SCc2ccccc2)nc2[nH]ncc12 | log10(TGI) | 1.07 |

Challenge: log10(TGI) for Clc1ccc(Cc2nc3cc(Cl)c(Cl)cc3n2CC2CCCN3CCCCC23)cc1Cl (stereo unspecified) ?
Response given: 1.36

* * *

# Tested on: NCI-H23 lung
# method.description: NCI tumour cell line growth inhibition, 48 h
*1 amine or outer side, *2 acyl side, *3 side chain or, on linkers, in order; H or OH if unused. Where a SMILES comes first, the peptide text is derived from it. [ ]: non-standard residue; d: D form. The star is where a group is joined. ξ: configuration not given here. X53 = CC(C)C[C@H](N[*:1])C1=N[C@H](C(=O)[*:2])CS1; Ile(3ξ) = CCC(C)[C@H](N)C(=O)O; Allyl(1,1-Me2) = C=CC(C)(C)*
observation.type: TGI

Look over these answered cases.
| compound | TGI |
| --- | --- |
| CC(C)(C)OC(=O)NCC(=O)NC1CC=CCC1NC(=O)CNC(=O)OC(C)(C)C (stereo unspecified) | > 100 µM |
| COc1cc2c3c(c1Oc1nnnn1-c1ccccc1)-c1c(ccc4c1OCO4)C[C@H]3N(C)CC2 | > 100 µM |

Can you give me TGI for all of these, one by one?
1. COc1cc(Nc2cc(O)c3c(=O)cc(-c4ccccc4)oc3c2)cc(OC)c1
2. Nc1nc(SCc2ccccc2)nc2[nH]ncc12
3. O=C(C(=O)c1cc(-c2ccccc2)nc2ccc3ccccc3c12)c1ccccc1

Response given:
40 µM
25.8 µM
> 100 µM

Can you give me TGI for all of these, one by one?
1. COc1cc(/C=C2\CCC(C)(CN(C)C)C2=O)cc(OC)c1OC (stereo unspecified)
2. FC(F)(F)c1cccc(C=NC23CC4CC(CC(C4)C2)C3)c1

Response given:
1: > 100 µM; 2: > 100 µM

Can you give me TGI for all of these, one by one?
1. CCOC(=O)/C=C1/Oc2ccccc2C1(C)O (stereo unspecified)
2. CC[C@H]1CC(=O)c2c(cc3c(c2O)C(=O)c2ccccc2C3=O)[C@@]1(C#N)C(=O)OC(C)(C)C
3. C=CC(C)(C)OC[C@@H]1NC(=O)CNC(=O)[C@@H]2CCCN2C(=O)[C@H](C(C)CC)NC(=O)[C@@H]2CSC(=N2)[C@H](CC(C)C)NC1=O (stereo partly specified) (cyclo(GS(Allyl(1,1-Me2))[X53][Ile(3ξ)]P))
4. N#CNC1=NC(Cc2ccccc2)C(=O)N1CCc1c[nH]c2ccccc12 (stereo unspecified)
5. O=C(O)[C@@H](NS(=O)(=O)c1ccc(F)cc1)c1ccccc1

Response given:
1: > 100 µM; 2: 11.2 µM; 3: > 100 µM; 4: > 100 µM; 5: > 100 µM
